target: Mouse GCGR (mouse, UniProt Q61606 27-485); assay: cell-based or functional assay
Sequence (Q61606 27-485): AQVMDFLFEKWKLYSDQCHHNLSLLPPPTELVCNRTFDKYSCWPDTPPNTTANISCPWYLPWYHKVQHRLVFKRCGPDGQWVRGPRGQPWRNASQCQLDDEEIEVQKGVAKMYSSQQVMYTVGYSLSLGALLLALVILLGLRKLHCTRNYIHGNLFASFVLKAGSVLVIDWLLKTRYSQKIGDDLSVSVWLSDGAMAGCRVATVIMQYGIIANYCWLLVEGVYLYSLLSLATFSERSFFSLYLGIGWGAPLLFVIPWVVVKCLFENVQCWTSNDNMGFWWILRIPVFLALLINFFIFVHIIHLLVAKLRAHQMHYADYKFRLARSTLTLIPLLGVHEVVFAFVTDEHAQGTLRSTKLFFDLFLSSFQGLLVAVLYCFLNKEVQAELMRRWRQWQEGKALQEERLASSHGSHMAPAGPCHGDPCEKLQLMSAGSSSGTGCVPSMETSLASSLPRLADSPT
VALUE_KIND: IC50 (nM)

ch1817 (antibody, human IgG4 S228P, kappa, F234A L235A, V domains shown, IgG4-AA / kappa chimeric antibody) VH: EVQLVESGGDLVQPGRSMKLSCAASGFTFSNYYMAWVRQAPTKGLEWVASISTGGVNTYYRDSVKGRFTISRDNAKNNLYLQMDSLRSEETATYYCARHTTADYFYGIYFALDAWGQGTSVTVSS VL: QFTLTQPKSVSGSLRSTITIPCERSSGDIGDSYVNWYQQHLGRPPLNVIYADVQRPSEVSDRFSGSIDSSSNSASLTITNLQMDDEADYFCQSYDTNIDIIFGGGTKLTVLR: 12.8
